Each entry below lists one item and its recorded soluble fraction (log2) value.
test: soluble fraction after stress (log2 fold change); higher = more stays soluble; pooled small domains, quantitative proteomics; conditions: stress: pH 4
// print number alone

Worked examples, 7 sequences total:
primary_sequence	soluble fraction (log2)
HMKTIQVGSTVRVNQGAKTYSGGGLASFVYKRNHKVSQLQGDRAVITYEGTVVAAVHVSDLSLIH	-0.801
HMHLTRYQYKVETEQEAVGLKELSSVHDLQIKENEATFQADSDAIDEILKTLLLYGVKKLEATPPTLED	-1.05
HMLETILQIGKDGVGENLVKQVNDALEARELIKGRVLDNNLELDARTAAQILAKATRSEVVQVIGTKFV	0.0332
HMGKEWPTPDNVEEWKKLVKKARLWPIQADQAQSEETRERNRKKWELFVAYAKRFGYRAGIGETGKPFVNN	0.164
HMNMEPNWLKWAKQLAALAQNGLTYSDNPYEIERYEHIRRIAAEMMAEGFELDTKTILELFPREKG	-1.41
HMPLDPFVVDALRDEIINTIKQHEPRVDLQKVQVQPIYTQNRVNISVQYKIVGLPIVEDITFVLQRP	0.135
HMQDYYTQSDFARYLEDKGIHFPQNKIAVYRKRGKFPKEDLVVAGTPYWSKYTVESFAKHLLEQQN	0.302

Query sequence follows.
Quick note, soluble fraction (log2) for HMNSTGVYQRPDGFWEYRFTLSINGKKLPRRKSTDLMGNKLKTKREAIKAREEAIIALRTEKTI landed at 0.4

Value source: the domain aggregation screens of Martell et al. (2025)
